FYI, the data here is from patent US20230235004A1.

Molecular target: T1, mouse MAdCAM expressed on cells (mouse, UniProt Q61826 22-405)
T1 construct: whole, on cells
T1 sequence (looked up): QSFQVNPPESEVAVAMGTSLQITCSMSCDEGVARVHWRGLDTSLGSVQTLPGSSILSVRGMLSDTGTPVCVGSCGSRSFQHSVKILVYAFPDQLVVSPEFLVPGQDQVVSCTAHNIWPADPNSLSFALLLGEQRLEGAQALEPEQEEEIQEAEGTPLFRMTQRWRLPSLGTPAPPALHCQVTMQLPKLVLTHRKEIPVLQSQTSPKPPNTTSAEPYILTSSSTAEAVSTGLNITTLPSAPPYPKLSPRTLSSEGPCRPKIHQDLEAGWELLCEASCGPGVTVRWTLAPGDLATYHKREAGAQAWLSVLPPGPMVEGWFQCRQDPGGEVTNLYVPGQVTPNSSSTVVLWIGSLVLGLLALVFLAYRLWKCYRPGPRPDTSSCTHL
Test: cell binding

Binder: MAdCAM Antibody Table 2 clone 42 (antibody, V domains shown, IgG format) VH: QVQLVQSGAEVKKPGASVKVSCKASGYTLTDYYMHWVRQAPGQGLEWMGIINPSGGSTSYAQKFQGRVTMTRDTSTSTVYMELSSLRSEDTAVYYCAREEYSSSSGYFDYWGQGTLVTVSS VL: DIQMTQSPSSLSASVGDRVTITCRASQGISSWLAWYQQKPGKAPKLLIYAASSLQSGVPSRFSGSGSGTDFTLTISSLQPEDFATYYCQQSYSTPLTFGQGTKVEIK
binding result: no binding
//
Binder: MAdCAM Antibody Table 2 clone 32 (antibody, V domains shown, IgG format) VH: QVQLVQSGAEVKKPGASVKVSCKASGYTLTTWYMYWVRQAPGQGLEWMGWINPNRGATNYAQKFQGRVTMTRDTSTSTVYMELSSLRSEDTAVYYCAKGDLWGAMDVWGQGTLVTVSS VL: DIQMTQSPSSLSASVGDRVTITCRASDNIGSWLAWYQQKPGKAPKLLIYAASSLQSGVPSRFSGSGSGTDFTLTISSLQPEDFATYYCQQGYSTPPTFGQGTKVEIK
binding result: no binding
//
Binder: MAdCAM Antibody Table 2 clone 25 (antibody, V domains shown, IgG format) VH: EVQLLESGGGLVQPGGSLRLSCAASGFTFSNAWMSWVRQAPGKGLEWVSTIVGNGGATYYADSVKGRFTISRDNSKNTLYLQMNSLRAEDTAVYYCARDNPLRWQGMDVWGQGTLVTVSS VL: DIQMTQSPSSLSASVGDRVTITCRASQDISNYLNWYQQKPGKAPKLLIYAASSLQSGVPSRFSGSGSGTDFTLTISSLQPEDFATYYCQQSYSIPPTFGPGTKVDIK
binding result: no binding
//
Binder: MAdCAM Antibody Table 2 clone 17 (antibody, V domains shown, IgG format) VH: QVQLVQSGAEVKKPGSSVKVSCKASGYTFTDYHIHWVRQAPGQGLEWMGGIVPRSGSTTYAQKFQGRVTITADESTSTAYMELSSLRSEDTAVYYCAKDESSGWYYFDYWGQGTLVTVSS VL: DIVMTQSPLSLPVTPGEPASISCRSSQSLLHSNGYNYLDWYLQKPGQSPQLLIYSAYNRASGVPDRFSGSGSGTDFTLKISRVEAEDVGVYYCMQALQTPLTFGQGTKVEIK
binding result: no binding
//
Binder: MAdCAM Antibody Table 2 clone 82 (antibody, V domains shown, IgG format) VH: QVQLVQSGAEVKKPGASVKVSCKASGYTFTRHWIHWVRQAPGQGLEWMGWINVKTGGAGYAQKFQGRVTMTRDTSTSTVYMELSSLRSEDTAVYYCARESSGWYGTDVWGQGTTVTVSS VL: DIQMTQSPSSLSASVGDRATITCRASQSISNYLAWYQQKPGKAPKLLIYAASSLQSGVPSRFSGSGSGTDFTLTISSLQPEDFATYYCQQSNSFPLTFGGGTKVEIK
binding result: binds
